For reference, IC50 measured on Tyrosinase (Agaricus bisporus):
Your answer should be a plain number; it is taken to be in µM.

CCCCC/C=C\C/C=C\CCCCCCCC(=O)OCC(COC(=O)CCCCCCC/C=C\C/C=C\CCCCC)OC(=O)CCCCCCC/C=C\C/C=C\CCCCC; 8.4

Continue with the next compound.
q: What measured IC50 is associated with CCCCCCCC/C=C\CCCCCCCC(=O)OCC(COC(=O)CCCCCCC/C=C\CCCCCCCC)OC(=O)CCCCCCC/C=C\CCCCCCCC [TRIOLEIN] on Tyrosinase (Agaricus bisporus)?
a: 30

---

Biological target: Tyrosinase (Homo sapiens) (UniProt P14679)
Sequence (whole entry): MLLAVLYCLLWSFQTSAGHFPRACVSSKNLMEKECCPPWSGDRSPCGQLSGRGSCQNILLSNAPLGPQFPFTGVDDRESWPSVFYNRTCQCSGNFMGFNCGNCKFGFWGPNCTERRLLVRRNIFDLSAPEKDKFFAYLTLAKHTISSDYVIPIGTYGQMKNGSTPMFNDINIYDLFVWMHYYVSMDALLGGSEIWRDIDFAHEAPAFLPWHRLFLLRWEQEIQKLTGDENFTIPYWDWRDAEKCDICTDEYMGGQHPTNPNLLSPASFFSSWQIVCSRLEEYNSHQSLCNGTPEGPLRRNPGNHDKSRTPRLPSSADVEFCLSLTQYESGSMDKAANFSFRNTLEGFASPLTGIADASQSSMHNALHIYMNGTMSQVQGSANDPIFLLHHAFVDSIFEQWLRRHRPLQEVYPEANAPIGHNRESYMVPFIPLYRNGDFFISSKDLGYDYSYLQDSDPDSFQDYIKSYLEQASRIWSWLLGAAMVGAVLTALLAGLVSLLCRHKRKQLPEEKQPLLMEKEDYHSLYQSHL
Assay: Ratio of kojic acid IC50 to compound IC50 for human tyrosinase
Recorded measurements of Ratio IC50, one per entry
Reply with the value as a number alone.

O=C(NCCc1c[nH]c2cc(O)ccc12)c1cc(O)cc(O)c1; 34.1
CC(C)c1cccc(=O)c(O)c1; 63.6

Continue with the next compound.
q: Quick check: Ratio IC50 of CC(C)c1ccc(O)c(=O)cc1 ?
a: 497
